Tested on: Cdk4
assay.method.text: Immunoblot of client protein degradation in ST88-14 MPNST cells
Assay type: cell-based, human
assay.setup: ST88-14 cells, 24 hr treatment, 8-1000 nM; read-out: IC50 of induced degradation of Cdk4
measurement.label: IC50

Ask | Please look up its IC50: `O=C1OCC/C=C/CC/C=C/C(=N/OCC(=O)N2CCCCC2)Cc2c(Cl)c(O)cc(O)c21`
Reply | ~100 nM
